Hello, the source for this data is PubChem BioAssay, in case you need it.

PROTOCOL DETAILS: inhibitors of the yeast RAM network, pilot screen, dse1pr::URA3 reporter, 5-FOA selection (AID 869);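 note: 0% = DMSO wells with no growth and 100% = 10 µM 1-NA-PP1 with full growth; RAM network block rescues cells from 5-FOA so hits raise OD615 growth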
MEASUREMENT PARAMETERS: S. cerevisiae dse1pr::URA3 5-FOA growth, OD615, 2 d; at 10 µM; stronger effect = higher value; strain carries analog-sensitive mutant Cbk1 kinase
Recorded inhibition, one value per entry.

{"MOLECULE": "COc1cc(Cl)c(C)cc1NC(=O)CSc1nnc(-c2cccnc2)n1Cc1ccco1", "inhibition / %": 0.775}
{"MOLECULE": "Cc1ccc2c(c1)NC(=O)C(CC(=O)NCCCN1CCCCC1C)O2 (centres undefined)", "inhibition / %": -0.48}
{"MOLECULE": "O=C1NCCCC1C(=O)NCCN1C(=O)CCC1=O (centres undefined)", "inhibition / %": 1.04}
{"MOLECULE": "CCC(=O)Nc1cc(C)c(NC(=O)c2ccco2)cn1", "inhibition / %": 1.52}
{"MOLECULE": "Cn1c(=O)oc2cc(S(=O)(=O)Nc3cccc(F)c3)ccc21", "inhibition / %": 2.04}
{"MOLECULE": "COc1ccccc1N1CCN(C(=O)c2cc3cc(Br)ccc3oc2=O)CC1", "inhibition / %": 2.47}
{"MOLECULE": "CCCC(=O)Nc1nc2ccc(S(=O)(=O)N3CCCCC3)cc2s1", "inhibition / %": 1.27}
{"MOLECULE": "COC(=O)c1ccc(NC(=O)c2cnc3scc(C)n3c2=O)cc1", "inhibition / %": 0.345}
{"MOLECULE": "CC(=O)c1c(C)oc(C)c1CSCc1ccc(C(=O)O)o1", "inhibition / %": 0.665}
{"MOLECULE": "COc1ccc(C)cc1NC(=O)Cn1cnc2sc(C)c(S(=O)(=O)N3CCOCC3)c2c1=O", "inhibition / %": 2.75}
{"MOLECULE": "Cc1ccc(-c2noc(CSc3nnnn3C3CCCCC3)n2)cc1", "inhibition / %": 0.525}
{"MOLECULE": "O=C(NC1CCCCCC1)C1CCN(S(=O)(=O)c2cccc3cccnc23)CC1", "inhibition / %": -0.605}
{"MOLECULE": "O=c1c2ccccc2[nH]c(=S)n1Cc1cccnc1", "inhibition / %": -0.605}
{"MOLECULE": "COc1ccc(C(=O)OCCN2C(=O)c3ccccc3C2=O)cc1OC", "inhibition / %": 0.34}
{"MOLECULE": "COc1ccc(C(=O)N(Cc2nc(-c3ccc(C)cc3)no2)C(C)C)cc1OC", "inhibition / %": 3.8}
{"MOLECULE": "COc1ccc(NC(=O)C2CCCN2S(=O)(=O)c2ccc3c(c2)CCC(=O)N3)cc1Cl (centres undefined)", "inhibition / %": 1.18}
{"MOLECULE": "COc1ccc(C2CC(c3ccc(F)cc3)Nc3nc(N)nn32)cc1OC (centres undefined)", "inhibition / %": 1.21}
{"MOLECULE": "CCCCCn1c(=O)[nH]c2cc(C(=O)NCCCN(CC)CC)ccc2c1=O", "inhibition / %": 1.65}
{"MOLECULE": "COCCNC(=O)c1ccc2c(=O)n(CCOC)c(=O)[nH]c2c1", "inhibition / %": 0.805}
{"MOLECULE": "Cc1oc(-c2cccc(Cl)c2)nc1CN1CCC(C(=O)N2CCN(c3ccccn3)CC2)CC1", "inhibition / %": 0.99}
{"MOLECULE": "O=C(Cn1cc2c(n1)CCCC2)NCCCN1CCCC1", "inhibition / %": -0.37}
{"MOLECULE": "Cc1cc(NS(=O)(=O)c2ccc(NC(=O)c3cnc4scc(C)n4c3=O)cc2)nc(C)n1", "inhibition / %": 1.31}
{"MOLECULE": "Cc1ccc2nc(NC(=O)c3cccs3)sc2c1", "inhibition / %": 1.29}
{"MOLECULE": "O=C(c1ccc(CS(=O)(=O)c2ccc(Br)cc2)o1)N1CCN(c2ncccn2)CC1", "inhibition / %": 1.94}
{"MOLECULE": "COc1cccc(C(=O)Nc2nnc(-c3ccc(Cl)cc3)o2)c1", "inhibition / %": 1.6}
{"MOLECULE": "Cc1oc(-c2ccc(Cl)cc2)nc1CN1CCCC(C(=O)N2CCN(C(=O)c3ccco3)CC2)C1 (centres undefined)", "inhibition / %": -0.38}
{"MOLECULE": "CCOC(=O)c1nc(-c2ccc3c(c2)OCO3)[nH]c1C", "inhibition / %": 3.15}
{"MOLECULE": "CCCn1cc(S(=O)(=O)CC(=O)Nc2ccc(OCC)cc2)c2ccccc21", "inhibition / %": 1.41}
{"MOLECULE": "COc1cccc(C2NC(CCSC)(C(=O)O)C3C(=O)N(C(C)C)C(=O)C23)c1O (centres undefined)", "inhibition / %": 1.93}
{"MOLECULE": "COc1ccc(C(=O)Nc2cc3c(cc2C#N)OCO3)cc1S(=O)(=O)N1CCN(C)CC1", "inhibition / %": 0.975}
{"MOLECULE": "C(=N\\n1cnnc1)/c1ccc(N2CCOCC2)s1", "inhibition / %": 4.36}
{"MOLECULE": "CCOc1ccccc1Nc1nc2ccccc2n2cnnc12", "inhibition / %": 3.04}
{"MOLECULE": "CCN(CC)C(=O)C(C)N(C#N)c1nc(NC(C)C)nc(NC(C)C)n1 (centres undefined)", "inhibition / %": 0.715}
{"MOLECULE": "COc1cc2c(C(=O)NCc3ccccn3)cn(C)c(=O)c2cc1OC", "inhibition / %": 1.86}
{"MOLECULE": "Cc1ccc(CNC(=O)c2oc3ccc(S(=O)(=O)N4CCC5(CC4)OCCO5)cc3c2C)cc1", "inhibition / %": 1.35}
{"MOLECULE": "Cc1cc(Nc2ccccc2F)n2nc(C)nc2n1", "inhibition / %": 1.95}
{"MOLECULE": "CC1=C(C(=O)OC(C)C)C(c2c(O)ccc3ccccc23)NC(=O)N1 (centres undefined)", "inhibition / %": 1.88}
{"MOLECULE": "Cc1ccc(-c2nc(=S)c3c(n2Cc2ccco2)CC(C)(C)OC3)cc1", "inhibition / %": -0.945}
{"MOLECULE": "O=C(Nc1nnc(-c2cccs2)o1)c1cccc(F)c1", "inhibition / %": 0.745}
{"MOLECULE": "CCOC(=O)c1c(C)n(C)c2ccc(OCC(O)CN3CCCCCC3)cc12 (centres undefined)", "inhibition / %": 0.77}
{"MOLECULE": "COCCNC(=O)Cn1cnc2c1c(=O)n(C)c(=O)n2C", "inhibition / %": 1.23}
{"MOLECULE": "CC1=C(C(N)=O)C(c2ccccc2)n2nc(-c3cccc(C)c3)nc2N1 (centres undefined)", "inhibition / %": 0.79}
{"MOLECULE": "CCCNc1nc2c(c(=O)n(C)c(=O)n2C)n1Cc1ccc(F)cc1", "inhibition / %": 0.88}
{"MOLECULE": "CCN(CC)CCCNC(=O)c1cc(-c2ccc(O)cc2)on1", "inhibition / %": 1.24}
